Field Ki: reported value for Tyrosine-protein kinase JAK2 (Homo sapiens, UniProt O60674); entries drawn from several documents.

# map each compound to its Ki
1. CC(C)C[C@@H](Nc1nc(-c2cn(C)c3ncc(Cl)cc23)ncc1F)C(=O)NCC(F)(F)F
2. COc1ccc(C2NC(=O)c3ccccc3-c3ccnc4[nH]cc2c34)cc1 (stereo not shown)

RESULT:
1: ≥ 500 nM; 2: > 2500 nM

# map each compound to its Ki
1. CC[C@@H](C(=O)NCC(F)(F)F)n1cnc2cnc(-c3c[nH]c4ncncc34)nc21
2. N#Cc1cccc(F)c1-c1cc(-n2cc3c(n2)NCCC3)c2c(n1)CNC2=O

RESULT:
["< 500 nM", "0.1 to 10 nM"]
